- System: Escherichia coli TOP10
- Test Details: shrunken log2 fold change of peptide-encoding DNA abundance (4.5 h post-induction vs induction); higher = less antimicrobial activity (less host growth inhibition)
- Run Conditions: time post-induction: 4.5 h; library: site-saturation at positions 5, 18, 19, 20
Provide the reported shrunken log2 fold change of each item.
The answer should be written as a number, with no unit following it.

## Task Give recorded shrunken log2 fold change. RRIRHRPPRLPRPRPRPSQKPRP
## Result -0.0338

## Task // fetch shrunken log2 fold change given entry RRIRIRPPRLPRPRPRPRVYPRP
## Result 0.00283

## Task Identify measured shrunken log2 fold change associated with RRIRSRPPRLPRPRPRPPTCPRP
## Result 0.155

## Task Please give measured shrunken log2 fold change of the following entry: RRIRDRPPRLPRPRPRPHPAPRP
## Result 0.145

## Task Entry RRIRERPPRLPRPRPRPFHLPRP needs its shrunken log2 fold change filled in; supply it.
## Result -0.173

## Task Tell us which shrunken log2 fold change value is on record for RRIRSRPPRLPRPRPRPDCMPRP
## Result -0.165

## Task Please give measured shrunken log2 fold change of the following entry: RRIRERPPRLPRPRPRPATMPRP
## Result -0.324

## Task Give recorded shrunken log2 fold change. RRIRQRPPRLPRPRPRPHVQPRP
## Result -0.46

## Task Return reported shrunken log2 fold change. Input sequence: RRIRHRPPRLPRPRPRPEYHPRP
## Result -0.317

## Task Provide one value: measured shrunken log2 fold change of RRIRERPPRLPRPRPRPKRQPRP
## Result -0.0958

## Task Quick one: give measured shrunken log2 fold change for RRIRWRPPRLPRPRPRPLMKPRP
## Result -0.0639

## Task Give me measured shrunken log2 fold change, please, for this sequence: RRIRDRPPRLPRPRPRPKQCPRP
## Result 0.101

## Task Supply recorded shrunken log2 fold change for RRIRDRPPRLPRPRPRPEAHPRP here.
## Result -0.00146

## Task Please report the measured shrunken log2 fold change for RRIRVRPPRLPRPRPRPVCQPRP
## Result 0.0508

## Task Please give measured shrunken log2 fold change of the following entry: RRIRTRPPRLPRPRPRPWGVPRP
## Result -0.0284

----------
- System: Escherichia coli TOP10
- Test Details: shrunken log2 fold change of peptide-encoding DNA abundance (4.5 h post-induction vs induction); higher = less antimicrobial activity (less host growth inhibition)
- Run Conditions: time post-induction: 4.5 h; library: site-saturation at positions 5, 18, 19, 20
Readout Type: shrunken log2 fold change

## Task Give reported shrunken log2 fold change value for RRIRMRPPRLPRPRPRPEFLPRP
## Result 0.113

## Task Give the reported shrunken log2 fold change for this sequence. RRIRWRPPRLPRPRPRPVLNPRP
## Result 0.116

## Task Consider the sequence RRIRFRPPRLPRPRPRPVYFPRP . State its measured shrunken log2 fold change.
## Result -0.399

## Task Report shrunken log2 fold change for RRIRIRPPRLPRPRPRPRLGPRP
## Result 0.0473

## Task Specify reported shrunken log2 fold change for the sequence shown: RRIRHRPPRLPRPRPRPHPSPRP
## Result 0.0305

## Task Look up and state reported shrunken log2 fold change for RRIRKRPPRLPRPRPRPGHWPRP
## Result 0.2

## Task // fetch shrunken log2 fold change given entry RRIRLRPPRLPRPRPRPLGEPRP
## Result 0.013

## Task Write down shrunken log2 fold change measured for item RRIRGRPPRLPRPRPRPVICPRP
## Result 0.252

## Task Return reported shrunken log2 fold change. Input sequence: RRIRKRPPRLPRPRPRPLKNPRP
## Result 0.211

## Task Answer with reported shrunken log2 fold change of RRIRIRPPRLPRPRPRPTWTPRP
## Result 0.398

## Task Give me measured shrunken log2 fold change, please, for this sequence: RRIRIRPPRLPRPRPRPFGWPRP
## Result 0.468

## Task Tell me its shrunken log2 fold change given RRIRERPPRLPRPRPRPYVSPRP as the entry.
## Result -0.672

## Task Kindly indicate its recorded shrunken log2 fold change. Item: RRIRLRPPRLPRPRPRPYHAPRP
## Result -0.186

## Task Determine from records and report shrunken log2 fold change for RRIRIRPPRLPRPRPRPIEVPRP
## Result -0.0018

## Task Report shrunken log2 fold change, nothing else, for this sequence: RRIRIRPPRLPRPRPRPQPAPRP
## Result 0.213

----------
- Test system: Escherichia coli TOP10
- Test Details: shrunken log2 fold change of peptide-encoding DNA abundance (4.5 h post-induction vs induction); higher = less antimicrobial activity (less host growth inhibition)
- Run Conditions: time post-induction: 4.5 h; library: site-saturation at positions 5, 18, 19, 20
Kindly return Condition met if reported shrunken log2 fold change is no lower than 0.08; return Condition not met if it is lower.

## Task Decide: shrunken log2 fold change of RRIRFRPPRLPRPRPRPPAAPRP >= 0.08?
## Result Condition met

## Task Does RRIRYRPPRLPRPRPRPECIPRP have a reported shrunken log2 fold change of at least 0.08?
## Result Condition not met

## Task Given the entry RRIRRRPPRLPRPRPRPRCCPRP , answer whether its shrunken log2 fold change meets or surpasses 0.08.
## Result Condition met

## Task Reported shrunken log2 fold change at or above 0.08? RRIRPRPPRLPRPRPRPYIMPRP
## Result Condition not met

## Task Item RRIRIRPPRLPRPRPRPQPLPRP with shrunken log2 fold change of 0.08 or above?
## Result Condition not met

## Task Decide: is the reported value of shrunken log2 fold change for RRIRGRPPRLPRPRPRPVWEPRP equal to or greater than 0.08?
## Result Condition met

## Task Does the reported shrunken log2 fold change for RRIRERPPRLPRPRPRPCQEPRP fall at or above the 0.08 mark?
## Result Condition not met

## Task Answer whether shrunken log2 fold change of RRIRVRPPRLPRPRPRPSGTPRP is greater than or equal to 0.08.
## Result Condition not met

## Task Reported shrunken log2 fold change at or above 0.08? RRIRWRPPRLPRPRPRPRQPPRP
## Result Condition met

## Task Is shrunken log2 fold change for RRIRERPPRLPRPRPRPRWPPRP at or above 0.08?
## Result Condition met

## Task Dear colleague, could you confirm whether RRIRVRPPRLPRPRPRPWCYPRP has shrunken log2 fold change at or above 0.08?
## Result Condition not met

## Task Assess whether reported shrunken log2 fold change for RRIRTRPPRLPRPRPRPQLLPRP sits at 0.08 or higher.
## Result Condition not met

## Task Quick check: does RRIRTRPPRLPRPRPRPPDYPRP have shrunken log2 fold change greater than or equal to 0.08?
## Result Condition not met

## Task In plain terms: is recorded shrunken log2 fold change at least 0.08 for RRIRPRPPRLPRPRPRPHGPPRP ?
## Result Condition not met

----------
- Test system: Escherichia coli TOP10
- Test Details: shrunken log2 fold change of peptide-encoding DNA abundance (4.5 h post-induction vs induction); higher = less antimicrobial activity (less host growth inhibition)
- Run Conditions: time post-induction: 4.5 h; library: site-saturation at positions 5, 18, 19, 20
Readout Type: shrunken log2 fold change
I'd appreciate a reply containing only the number, no unit.

## Task Give shrunken log2 fold change for the following sequence: RRIRLRPPRLPRPRPRPQEWPRP
## Result 0.0562

## Task Name the recorded shrunken log2 fold change of the item RRIRARPPRLPRPRPRPSMSPRP in your answer.
## Result -0.105

## Task Indicate its recorded shrunken log2 fold change; the sequence in question is RRIRCRPPRLPRPRPRPVDLPRP
## Result -0.348

## Task Please report shrunken log2 fold change for the following sequence: RRIRMRPPRLPRPRPRPNKDPRP
## Result 0.0301

## Task Find the measured shrunken log2 fold change of RRIRNRPPRLPRPRPRPGEFPRP and report it.
## Result -0.00204

## Task Given the sequence RRIRPRPPRLPRPRPRPTEGPRP , write its reported shrunken log2 fold change.
## Result -0.0468

## Task Output measured shrunken log2 fold change for this item: RRIRLRPPRLPRPRPRPQCGPRP
## Result 0.0192

## Task Input RRIRKRPPRLPRPRPRPWIIPRP , output reported shrunken log2 fold change.
## Result -0.277

----------
Can you tell me shrunken log2 fold change for the items I'm about to list?
- Tested on: Escherichia coli TOP10;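 also: peptides expressed intracellularly from a pBAD plasmid library in pooled LB shake-flask culture, induced with 0.3% L-arabinose, DNA abundance read by NGS, three biological replicates, DESeq2 with apeglm shrinkage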
- Test Details: shrunken log2 fold change of peptide-encoding DNA abundance (4.5 h post-induction vs induction); higher = less antimicrobial activity (less host growth inhibition)
- Run Conditions: time post-induction: 4.5 h; library: site-saturation at positions 5, 18, 19, 20

## Task Specify measured shrunken log2 fold change for RRIRKRPPRLPRPRPRPAAAPRP .
## Result 0.896

## Task Tell me shrunken log2 fold change reported for RRIRSRPPRLPRPRPRPFESPRP
## Result -0.258

## Task In one line, give reported shrunken log2 fold change of the entry RRIRNRPPRLPRPRPRPKDGPRP .
## Result -0.00992

## Task Supply reported shrunken log2 fold change belonging to this sequence: RRIRCRPPRLPRPRPRPFADPRP
## Result -0.45

## Task Hello, please tell me recorded shrunken log2 fold change for this one: RRIRCRPPRLPRPRPRPGMKPRP
## Result 0.062

## Task State, in one line, measured shrunken log2 fold change of RRIRTRPPRLPRPRPRPTDSPRP
## Result -0.106

## Task Specify reported shrunken log2 fold change for the sequence shown: RRIRFRPPRLPRPRPRPNECPRP
## Result -0.00063

## Task For the sequence RRIRARPPRLPRPRPRPRQIPRP , report shrunken log2 fold change.
## Result 0.313

## Task Answer with the recorded shrunken log2 fold change of RRIRMRPPRLPRPRPRPIDNPRP only.
## Result 0.213

## Task Give the reported value of shrunken log2 fold change for this record: RRIRNRPPRLPRPRPRPVQVPRP
## Result -0.317

## Task Report measured shrunken log2 fold change; entry is RRIRRRPPRLPRPRPRPPSHPRP
## Result 0.586

## Task Retrieve shrunken log2 fold change measured for RRIRWRPPRLPRPRPRPNIGPRP and print it.
## Result 0.138

## Task Return shrunken log2 fold change (reported value) for this sequence: RRIRKRPPRLPRPRPRPNDEPRP
## Result 0.179

## Task Give shrunken log2 fold change for RRIRLRPPRLPRPRPRPAPVPRP
## Result 0.23

## Task In one line, give reported shrunken log2 fold change of the entry RRIRTRPPRLPRPRPRPMLAPRP .
## Result 0.306

## Task Please report shrunken log2 fold change for the following sequence: RRIRHRPPRLPRPRPRPSICPRP
## Result 0.0424

## Task Assign shrunken log2 fold change to the following record: RRIRYRPPRLPRPRPRPATVPRP
## Result -0.042

## Task Identify measured shrunken log2 fold change corresponding to RRIRPRPPRLPRPRPRPDSHPRP
## Result 0.101

## Task Check the records and state shrunken log2 fold change for RRIRSRPPRLPRPRPRPNLRPRP
## Result 0.0182

## Task Report measured shrunken log2 fold change; entry is RRIRLRPPRLPRPRPRPAQDPRP
## Result 0.392

## Task # return recorded shrunken log2 fold change for input RRIRPRPPRLPRPRPRPQWVPRP
## Result 0.0693

## Task Tell me measured shrunken log2 fold change for RRIRERPPRLPRPRPRPVFLPRP please.
## Result -0.474

## Task Recall and state the measured shrunken log2 fold change for RRIRVRPPRLPRPRPRPSFKPRP .
## Result -0.202

## Task Please supply the value of reported shrunken log2 fold change for the item RRIRKRPPRLPRPRPRPFQKPRP
## Result 0.0267

## Task For the sequence RRIRIRPPRLPRPRPRPENCPRP , give its measured shrunken log2 fold change value.
## Result -0.00941

## Task Let me know recorded shrunken log2 fold change for RRIRHRPPRLPRPRPRPPYTPRP , thanks.
## Result -0.266

## Task Answer with the recorded shrunken log2 fold change for the sequence listed here: RRIRNRPPRLPRPRPRPFRQPRP
## Result 0.0231

## Task Specify measured shrunken log2 fold change for RRIRERPPRLPRPRPRPNMQPRP .
## Result -0.664

## Task // Input: RRIRTRPPRLPRPRPRPDCTPRP . Output its shrunken log2 fold change only.
## Result 0.0818

## Task Output shrunken log2 fold change of RRIRCRPPRLPRPRPRPMYAPRP
## Result 0.0401

## Task Item RRIRVRPPRLPRPRPRPFLQPRP : provide shrunken log2 fold change
## Result 0.15

## Task Name the recorded shrunken log2 fold change of the item RRIRGRPPRLPRPRPRPEIAPRP in your answer.
## Result 1.86

// data source = the supplement of paper PMC9112550
